System: DMS-114
Assay: NCI tumour cell line growth inhibition, 48 h
Calls of active or inactive are those of the source. No stated cut-off is given here; in the data, active = GI50 up to about 1.1 µM and inactive = higher.
Hello, when you answer, please use one of the following outcomes: y (active), n (inactive)

MOLECULE	TARGET OR SYSTEM	ANSWER LABEL
OC1CCSc2ccccc21 (centres undefined)	DMS-114	n
CC[C@@]1(O)C(=O)OCc2c1cc1n(c2=O)Cc2cc3c(N)cccc3nc2-1 [9-AMINOCAMPTOTHECIN]	DMS-114	y
CC1(C)OC2CC3COC(=O)C3CC2O1 (centres undefined)	DMS-114	n
COc1ccc(O)cc1C=O	DMS-114	n
Cc1ccc(S(=O)(=O)OCC23CCC(C2)C2CC23)cc1 (centres undefined)	DMS-114	n

Here's the next entry for you.
input: Fill in: this test's call for OCC(O)C(O)C(O)C(O)c1nnn[nH]1 (centres undefined) is ___
output: n

The values you see were collected from ChEMBL document CHEMBL1201862.
